Source of measurements: patent US20250034594A1

Measured Editing Efficiency (Absolute, Average, two targets) accompanies every entry in the list below.
# Tested on: endogenous genome targets (ACTB, HSP90AA1)
# experiment: Arrayed SSAP library screening, mKate knock-in assay (editing efficiency)
# Type: cell-based
# conditions: percent of mKate knock-in; average of HSP90 and ACTB; 3 days after transfection

• SSAP_29: SEQ ID NO: 198 (protein) STALATLAGKLAERVGMDSVDPQELITTLRQTAFKGDASDAQFIALLIVANQYGLNPWTKEIYAFPDKQNGIVPVVGVDGWSRIINENQQFDGMDFEQDDESCTCRIYRKDRNHPICVTEWMDECRRAPFKTREGREITGPWQSHPKRMLRHKAMIQCARLAFGFAGIYDKDEAERIVENTAYTTERQPERDITPVNEETMSEINALLTSMEKTWDDDLLPLCSQIFRRYIRASSELSQAEAEKVLGFLKQKATEQKVAA = 12.9225

Next molecule, please.
Report Editing Efficiency (Absolute, Average, two targets) for SSAP_190: SEQ ID NO: 359; Microbacterium laevaniformans OR221 (protein, Microbacterium laevaniformans, Microbacterium laevaniformans OR221) TDLSTVAAAAKQNPTMKDLVEAQLPAIERQLGGTMNSDAFVRAVLSEITKSPDLMQADPKTLLGGVMLAAQLRLEIGSGLGEFYLTPRKDHGRMICLPIVGFQGMVKLALRSEFVTNVQAFIVREGDDFTYGANAERGMFYDWTPKDFEEKRPMVGVVATARMKQGGTTWAYLTREQVEDRRPSYWQKTPWGSHPDEMAKKTAVRALAKYLPKATDLGRAIEADEQKVQHVKGLDEVTVTRLDDEPETVVVQETTDAWAATPVAEVQP please.
13.025
